Tested on: HCT116 colon cancer cells
Assay: Cytotoxicity assay, HCT116
Conditions: Homo sapiens, HCT-116, 72 h, read-out: Cytotoxicity IC50 HCT116
Measured Metric: pIC50
Worth noting: pIC50 values are minus log10 of concentrations stated in mol/L.

Reported pIC50, molecule O=c1[nH]cc(F)c(=O)[nH]1 [Compound 5-FU, 5-fluorouracil, reference compound] : ____
4.35

###

Test system: SW480 colon cancer cells
Assay: Cytotoxicity assay, SW480
Format: cell-based
Settings: 72 hours, cell count
Measured Metric: IC50 (µM)
Response body: numeric value in µM, unit text excluded.

I am curious: what IC50 value has been reported for OC[C@H]1O[C@@H](Oc2cc3c(O)cc(O)cc3[o+]c2-c2cc(O)c(O)c(O)c2)[C@H](O)[C@@H](O)[C@@H]1O [Compound 4, delphinidin 3-glucoside] ?
20

Data origin: patent US8846757B2
